tested on: MOLM-13 cells; experiment: Cell proliferation assay (alamarBlue), MOLM-13; assay type: cell-based; conditions: Homo sapiens, acute myeloid leukaemia, 96 hours incubation
Reported IC50 values for a set of molecules
# output: bare number, implied unit nM

>>> print(df.to_string())
                                   molecule  assayendpoint  observedresult
0  Cc1c2c(cn1C)-n1c(C)nnc1[C@H](CC(=O)N1CC3(COC3)C1)N=C2c1ccccc1           IC50             900

IN: Which IC50 is listed for Cc1c2c(cn1C)-n1c(C)nnc1[C@H](CC(=O)N1CC3CCC1CC3)N=C2c1ccc(Cl)cc1 (single isomer, unassigned; (-)) ?
OUT: 690

IN: Query: IC50; subject: `Cc1c2c(cn1C)-n1c(C)nnc1[C@H](CC(=O)N1CC3(COC3)C1)N=C2c1ccc(Cl)cc1`
OUT: 710

IN: Give its IC50 value. Item: `Cc1c2c(cn1C)-n1c(C)nnc1[C@H](CC(=O)N1CC3(CCS3(=O)=O)C1)N=C2c1ccc(Cl)cc1`
OUT: 110

IN: # lookup: IC50 of `Cc1c2c(cn1C)-n1c(C)nnc1[C@H](CC(=O)N1CCC3(CC1)COC3)N=C2c1ccc(Cl)cc1`
OUT: 480

---

Test system: MOLM-13 cells
Assay: Cell proliferation assay (alamarBlue), MOLM-13
Type: cell-based
Settings: Homo sapiens, acute myeloid leukaemia, 96 hours incubation
Protocol: In accordance with the invention, the ability of the substances to inhibit cell proliferation was determined Cell viability was determined by means of the alamarBlue® reagent (Invitrogen) in a Victor ×3 Multilabel Reader (Perkin Elmer). The excitation wavelength was 530 nm and the emission wavelength […]. […] After overnight incubation at 37° C., the fluorescence values (CI values) were determined. […] Subsequently, the fluorescence values were determined (CO values). […]
Criterion: IC50 strictly less than 1000 nM. Met: rule met. Not met: rule not met.

>>> df
                                   compound    assaytarget      category
0  Cc1c2c(cn1C)-n1c(C)nnc1[C@H](CC(=O)N1C3CCC1CC(=O)C3)N=C2c1ccc(Cl)cc1 (single isomer, unassigned; (-))  MOLM-13 cells  rule not met
1  Cc1c2c(cn1C)-n1c(C)nnc1[C@H](CC(=O)N1CC3CCC(C1)O3)N=C2c1ccc(Cl)cc1 (single isomer, unassigned; (-))  MOLM-13 cells      rule met
2  Cc1nnc2n1-c1cn(C)nc1C(c1ccc(Cl)cc1)=N[C@H]2CC(=O)N1CC2(CCS2(=O)=O)C1  MOLM-13 cells  rule not met

IN: Hello, I'm reviewing records and need to know if IC50 of `Cc1c2c(cn1C)-n1c(C)nnc1[C@H](CC(=O)N1CCOC3(CCCCC3)C1)N=C2c1ccc(Cl)cc1` is below 1000 nM. Could you check?
OUT: rule not met

IN: # TODO verify IC50 < 1000 nM strictly for this compound: `Cc1c2c(cn1C)-n1c(C)nnc1[C@H](CC(=O)N1CCC3(COC3)C1)N=C2c1ccc(Cl)cc1`
OUT: rule met

IN: Quick check: does Cc1c2c(cn1C)-n1c(C)nnc1[C@H](CC(=O)N1CC3CCC(C3)C1)N=C2c1ccc(Cl)cc1 (single isomer, unassigned; (-)) have IC50 under 1000 nM?
OUT: rule not met

---

biological target: BRD4 (BD1) (Homo sapiens, UniProt O60885); construct: N-terminally His6-tagged BRD4 (BD1) (amino acids 67-152, longer constructs also being possible, preferably amino acids 44-168); made in house; host or cells: E. coli; experiment: Binding assay BRD4/acetylated peptide H4 (TR-FRET protein-protein interaction assay)
assayEndpoint: IC50 (nM)
Give the quantity in nM, number only.

IN: State the recorded IC50 for this entry: `Cc1c2c(cn1C)-n1c(C)nnc1[C@H](CC(=O)N1CC3(CCS3(=O)=O)C1)N=C2c1ccc(Cl)cc1`
OUT: 20

---

Overview of reported pIC50 across a group of compounds:
target: BRD4 (BD1) (Homo sapiens); construct: N-terminally His6-tagged BRD4 (BD1) (amino acids 67-152, longer constructs also being possible, preferably amino acids 44-168); made in house; host or cells: E. coli; assay: Binding assay BRD4/acetylated peptide H4 (TR-FRET protein-protein interaction assay); conditions: BRD4 (BD1) / acetylated histone H4 peptide, TR-FRET; read-out: IC50 (BRD4)
Expect pIC50 as a plain number equal to -log10 of the molar concentration.

// solved cases for pIC50 follow
>>> print(df.to_string())
                                   compound  assayendpoint  observedresult
0  Cc1c2c(cn1C)-n1c(C)nnc1[C@H](CC(=O)N1CCOC3(CCCCC3)C1)N=C2c1ccc(Cl)cc1          pIC50            7.10
1  Cc1c2c(cn1C)-n1c(C)nnc1[C@H](CC(=O)N1C3CCC1CC(=O)C3)N=C2c1ccc(Cl)cc1 (single isomer, unassigned; (-))          pIC50            6.62
2  Cc1c2c(cn1C)-n1c(C)nnc1[C@H](CC(=O)N1CC3CCC1CC3)N=C2c1ccc(Cl)cc1 (single isomer, unassigned; (-))          pIC50            7.00

Attention now turns to another entry.
IN: Form entry - test system: BRD4 (BD1) (Homo sapiens); read-out: pIC50; compound: `Cc1c2c(cn1C)-n1c(C)nnc1[C@H](CC(=O)N1CC3(COC3)C1)N=C2c1ccccc1`
OUT: 6.85

---

target: BRD4 (BD1) (Homo sapiens, UniProt O60885); construct: N-terminally His6-tagged BRD4 (BD1) (amino acids 67-152, longer constructs also being possible, preferably amino acids 44-168); made in house; host or cells: E. coli; experiment: Binding assay BRD4/acetylated peptide H4 (TR-FRET protein-protein interaction assay); details: BRD4 (BD1) / acetylated histone H4 peptide, TR-FRET; read-out: IC50 (BRD4)
Below: a set of entries, each annotated with reported pIC50.
Remember, pIC50 is on a log scale: it is -log10 of the molar concentration.

// worked examples, pIC50 included
>>> df
                                   compound  observedresult
0  Cc1c2c(cn1C)-n1c(C)nnc1[C@H](CC(=O)N1CC3CCC(C3)C1)N=C2c1ccc(Cl)cc1 (single isomer, unassigned; (-)) [Example 10]            6.51
1  Cc1c2c(cn1C)-n1c(C)nnc1[C@H](CC(=O)N1CCC3(CC1)COC3)N=C2c1ccc(Cl)cc1 [Example 12]            6.92
2  Cc1nnc2n1-c1cn(C)nc1C(c1ccc(Cl)cc1)=N[C@H]2CC(=O)N1CC2(CCS2(=O)=O)C1 [Example 15]            6.10

IN: Recorded pIC50 for Cc1c2c(cn1C)-n1c(C)nnc1[C@H](CC(=O)N1CC3(CCOCC3)C1)N=C2c1ccc(Cl)cc1 [Example 11] with BRD4 (BD1) (Homo sapiens, UniProt O60885), please?
OUT: 6.16

IN: Request: pIC50, test system BRD4 (BD1) (Homo sapiens, UniProt O60885), entry Cc1c2c(cn1C)-n1c(C)nnc1[C@H](CC(=O)N1CCC3(COC3)C1)N=C2c1ccc(Cl)cc1 [Example 13]
OUT: 7.15

IN: Provide value of pIC50 for this record tested with BRD4 (BD1) (Homo sapiens, UniProt O60885): Cc1c2c(cn1C)-n1c(C)nnc1[C@H](CC(=O)N1CC3CCC(C1)O3)N=C2c1ccc(Cl)cc1 (single isomer, unassigned; (-)) [Example 8]
OUT: 6.72

IN: Checklist item: pIC50 tested on BRD4 (BD1) (Homo sapiens, UniProt O60885), entry Cc1c2c(cn1C)-n1c(C)nnc1[C@H](CC(=O)N1CC3(COC3)C1)N=C2c1ccc(Cl)cc1 [Example 1] , value?
OUT: 6.82

IN: What is its pIC50 for BRD4 (BD1) (Homo sapiens, UniProt O60885)? Entry: Cc1nnc2n1-c1cn(C)nc1C(c1ccc(Cl)cc1)=N[C@H]2CC(=O)N1CC2(COC2)C1 [Example 4]
OUT: 6.34

IN: Provide value of pIC50 for this record tested with BRD4 (BD1) (Homo sapiens, UniProt O60885): Cc1c2c(cn1C)-n1c(C)nnc1[C@H](CC(=O)N1CC3CC1CO3)N=C2c1ccc(Cl)cc1 (stereo in doubt) [Example 7]
OUT: 6.68

---

system: MOLP-8 cells; assay: Cell proliferation assay (alamarBlue), MOLP-8; assay type: cell-based; conditions: Homo sapiens, multiple myeloma, 120 hours incubation
assayEndpoint: pIC50
pIC50 here is simply -log10 of the concentration when that concentration is written in mol/L.

IN: Give pIC50 (MOLP-8 cells) of the following compound: `Cc1c2c(cn1C)-n1c(C)nnc1[C@H](CC(=O)N1CC3(CCS3(=O)=O)C1)N=C2c1ccc(Cl)cc1`
OUT: 6.85
